I'd appreciate it if you could supply phosphorylation enrichment values for the items below.
MEASURED_ON: Jak2 (UniProt O60674)
Sequence (O60674 whole entry, looked up): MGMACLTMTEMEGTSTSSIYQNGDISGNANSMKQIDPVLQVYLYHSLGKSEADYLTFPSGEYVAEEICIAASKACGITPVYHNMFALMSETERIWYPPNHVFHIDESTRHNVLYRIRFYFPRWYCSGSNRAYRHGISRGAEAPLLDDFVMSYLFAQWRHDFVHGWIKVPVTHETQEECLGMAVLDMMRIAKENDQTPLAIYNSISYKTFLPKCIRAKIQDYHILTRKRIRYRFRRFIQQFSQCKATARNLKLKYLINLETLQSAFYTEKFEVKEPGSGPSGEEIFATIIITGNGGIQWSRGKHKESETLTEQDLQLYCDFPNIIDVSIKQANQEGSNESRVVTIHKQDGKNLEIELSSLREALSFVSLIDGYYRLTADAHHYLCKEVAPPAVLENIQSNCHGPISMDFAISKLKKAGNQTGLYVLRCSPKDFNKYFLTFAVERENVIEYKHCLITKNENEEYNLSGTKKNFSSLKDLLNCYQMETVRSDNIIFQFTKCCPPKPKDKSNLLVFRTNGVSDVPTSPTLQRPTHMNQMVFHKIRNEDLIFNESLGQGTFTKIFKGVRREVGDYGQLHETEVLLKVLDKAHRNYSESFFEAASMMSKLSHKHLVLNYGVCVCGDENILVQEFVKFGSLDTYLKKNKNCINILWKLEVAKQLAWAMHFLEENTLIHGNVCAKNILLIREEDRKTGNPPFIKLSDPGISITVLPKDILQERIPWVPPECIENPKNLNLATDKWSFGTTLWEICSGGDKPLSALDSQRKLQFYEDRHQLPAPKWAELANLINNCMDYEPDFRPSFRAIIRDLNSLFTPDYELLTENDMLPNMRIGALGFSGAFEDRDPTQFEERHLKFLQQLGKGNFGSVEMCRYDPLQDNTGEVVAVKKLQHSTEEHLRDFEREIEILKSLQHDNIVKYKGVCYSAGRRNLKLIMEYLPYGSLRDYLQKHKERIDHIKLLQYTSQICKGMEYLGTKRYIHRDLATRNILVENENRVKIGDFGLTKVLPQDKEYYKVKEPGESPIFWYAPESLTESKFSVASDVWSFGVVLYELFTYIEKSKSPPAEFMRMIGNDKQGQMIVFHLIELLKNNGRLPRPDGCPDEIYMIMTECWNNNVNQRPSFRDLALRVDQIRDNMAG
EXPERIMENT: phosphorylation enrichment, bacterial display (enrichment ratio); higher = better substrate or ligand; peptides without Tyr show the background;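 note: 11-residue human phosphosite peptides and single-mutation variants displayed on the E. coli surface, counted by deep sequencing, each peptide's frequency after selection divided by its frequency in the unselected input library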;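 note: frequency after pTyr selection over input frequency; kinase dosed for 20-30% of maximal phosphorylation in three min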
Hey, just send me the number, nothing else.

Query string: Request: phosphorylation enrichment, test system Jak2 (UniProt O60674), entry HVEAVYIDIAD [PITPNA_Y140]
Result string: 0.922

Query string: Which measured phosphorylation enrichment belongs to VLALWYFFLTN [ZDHHC23_Y127_H132N_YF] , tested on Jak2 (UniProt O60674)?
Result string: 1.91

Query string: Quick check: phosphorylation enrichment on Jak2 (UniProt O60674), item TTSQLYDAVPI [PDPK1_Y9] ?
Result string: 0.849

Query string: Notebook: pull reported phosphorylation enrichment for Jak2 (UniProt O60674), entry FYVVRYCWLRR [MPZ_Y181]
Result string: 0.596

Query string: Kindly state the measured phosphorylation enrichment obtained for YGLPRYRWLTH [TSPAN12_Y143] with Jak2 (UniProt O60674).
Result string: 0.659

Query string: Item AFLQTYAHEVS [PCDHGA5_Y753_S754A] with Jak2 (UniProt O60674) - phosphorylation enrichment?
Result string: 0.786

Query string: GET /values?readout=phosphorylation enrichment&system=Jak2 (UniProt O60674)&item= RSAGKYDVFLI [MECP2_Y120_YF]
Result string: 0.775

Query string: Give the reported phosphorylation enrichment for KEGSAYGSQSV [NFKB2_Y868_D865G] (system: Jak2 (UniProt O60674)).
Result string: 0.673

Query string: Test system Jak2 (UniProt O60674); read-out phosphorylation enrichment; what value for YLENYYDLKKD [MMP3_Y42] ?
Result string: 1.61

Query string: Record TENAGYYFQVS : what is its phosphorylation enrichment with Jak2 (UniProt O60674)?
Result string: 1.99

Query string: Record lookup: for Jak2 (UniProt O60674), what phosphorylation enrichment belongs to ARQEEYSAMRD [KRAS_Y64_G60R] ?
Result string: 0.896

Query string: What value of phosphorylation enrichment on Jak2 (UniProt O60674) does FADIAYNYHHG [PAH_Y166_R169H] have?
Result string: 0.567

Query string: Give phosphorylation enrichment (Jak2 (UniProt O60674)) of the following sequence: FSCLPYGRLAY [SLC52A2_Y305]
Result string: 0.782

Query string: Missing value: phosphorylation enrichment, Jak2 (UniProt O60674), entry KVGPGYLGSRG [RET_Y826_G830R] . Fill in?
Result string: 0.439

Query string: Given the entry LFSNAYLNDLA [ALDH1A1_Y119_YF] , what phosphorylation enrichment was observed with Jak2 (UniProt O60674)?
Result string: 1.11

Query string: API: value(readout=phosphorylation enrichment, system=Jak2 (UniProt O60674)) for record EFITRYIDSLK [PSMA7_Y110_A112D_YF]
Result string: 0.733

Query string: So what phosphorylation enrichment did SVMAEYGLFAA [VSX2_Y219_G223A_YF] get with Jak2 (UniProt O60674)?
Result string: 0.734

Query string: Request: phosphorylation enrichment, test system Jak2 (UniProt O60674), entry VVQGIYGFHHF [UFSP2_Y285_YF]
Result string: 0.846

Query string: Entry SIKHKYVTALY [KCNH2_Y611_D609H] , system Jak2 (UniProt O60674): what phosphorylation enrichment was measured?
Result string: 0.528

Query string: Provide the documented phosphorylation enrichment with Jak2 (UniProt O60674) as the system for SSFSGYIMMPN [LEF1_Y114_YF]
Result string: 3.33

Query string: Lab request: please report phosphorylation enrichment under test system Jak2 (UniProt O60674) for TLQSMFGCDVG [HLA-B_Y123_Y123F]
Result string: 0.852

Query string: Lab note: need phosphorylation enrichment with Jak2 (UniProt O60674) for entry YTFNSYYMHWV [IGHV1-46_Y51_T49N] , please look it up.
Result string: 6.39

Query string: Field: phosphorylation enrichment (Jak2 (UniProt O60674)). Entry: SVKVYYKKCWS [EPHA7_Y202]
Result string: 1.21

Query string: Could you share what phosphorylation enrichment was measured for IYKAAYFGVYD [SLC25A4_Y191_R188K] , tested on Jak2 (UniProt O60674)?
Result string: 0.993

Query string: Request - read-out phosphorylation enrichment | tested on Jak2 (UniProt O60674) | sequence EFKKKYSDADI [CKAP5_Y1860_YF]
Result string: 0.606

Source listed as the supplement of paper PMC10065799.
